Record form. Attribute: AUC of dose-response viability curve. Fill in for each entry.
test system: 786-O; test: AUC of dose-response viability curve, drug alone (arbitrary (AUC of normalised viability)); higher = less growth inhibition; conditions: treatment: drug alone; 5 days

Q: Entry CN(C)c1ccc(-c2nc3c(N4CCN(CC(=O)Nc5nccs5)CC4)c(Cl)cnc3[nH]2)cc1 has what AUC of dose-response viability curve?
A: 2.24

Q: Entry CCc1cnn2c(NCc3ccc[n+]([O-])c3)cc(N3CCCC[C@H]3CCO)nc12 has what AUC of dose-response viability curve?
A: 0.398

Q: Entry C[C@@H](N)[C@H]1CC[C@H](C(=O)Nc2ccncc2)CC1.Cl.Cl has what AUC of dose-response viability curve?
A: 3.36

Q: Entry CC[C@@H]1C(=O)N(C)c2cnc(Nc3ccc(C(=O)NC4CCN(C)CC4)cc3OC)nc2N1C1CCCC1 [BI 2536] has what AUC of dose-response viability curve?
A: 0.585

Q: Entry O=C(NOC[C@H](O)CO)c1ccc(F)c(F)c1Nc1ccc(I)cc1F has what AUC of dose-response viability curve?
A: 1.88

Q: Entry CN1CCN(c2ccc3nc(-c4c(N)c5c(F)cccc5[nH]c4=O)[nH]c3c2)CC1 [Dovitinib (TKI-258)] has what AUC of dose-response viability curve?
A: 3.27

Q: Entry CNC(=O)CN1CCC(Oc2cc3c(Nc4cccc(Cl)c4F)ncnc3cc2OC)CC1 [AZD8931] has what AUC of dose-response viability curve?
A: 2.67

Q: Entry COCCOc1ccc2c(c1)ncn2-c1ccc2cccc(N3CCC(N)CC3)c2n1 has what AUC of dose-response viability curve?
A: 1.81

Q: Entry CN(C)CC[C@H](CSc1ccccc1)Nc1ccc(S(=O)(=O)NC(=O)c2ccc(N3CCN(Cc4ccccc4-c4ccc(Cl)cc4)CC3)cc2)cc1[N+](=O)[O-] [ABT-737] has what AUC of dose-response viability curve?
A: 1.66

Q: Entry O=C1NC(=O)/C(=C/c2ccc3c(c2)OC(F)(F)O3)S1 has what AUC of dose-response viability curve?
A: 2.35

Q: Entry COc1cc2ncnc(Nc3cccc(Cl)c3)c2cc1OC [AG-1478 (Tyrphostin AG-1478)] has what AUC of dose-response viability curve?
A: 2.32

Q: Entry S=C(NCc1ccc2c(c1)OCO2)N1CCN(c2ncnc3c2oc2ccccc23)CC1 [Amuvatinib (MP-470)_R2] has what AUC of dose-response viability curve?
A: 1.54

Q: Entry COC(=O)c1ccc2c(c1)NC(=O)/C2=C(\Nc1ccc(N(C)C(=O)CN2CCN(C)CC2)cc1)c1ccccc1 [BIBF1120 (Vargatef)] has what AUC of dose-response viability curve?
A: 3.94

Q: Entry CC1(COc2ccc3c(c2)ncn3-c2ccc3cccc(N4CCC(N)CC4)c3n2)COC1 has what AUC of dose-response viability curve?
A: 1.83

Q: Entry CNC(=O)c1cc(Oc2ccc(NC(=O)Nc3ccc(Cl)c(C(F)(F)F)c3)c(F)c2)ccn1 [Regorafenib (BAY 73-4506)] has what AUC of dose-response viability curve?
A: 2.63

---

Record form. Attribute: AUC of dose-response viability curve. Fill in for each entry.
system: ACHN; assay: AUC of dose-response viability curve, drug + dasatinib, normalised to DMSO (arbitrary (AUC of normalised viability)); higher = less growth inhibition; conditions: treatment: drug + dasatinib (fixed dose, not stated); 5 days
Give the figure by itself; no unit, no explanation.

Q: Entry COc1ccc(-c2cc3c(C)nc(N)nc3n([C@H]3CC[C@H](OCCO)CC3)c2=O)cn1 + Cc1nc(Nc2ncc(C(=O)Nc3c(C)cccc3Cl)s2)cc(N2CCN(CCO)CC2)n1 [dasatinib] has what AUC of dose-response viability curve?
A: 1

Q: Entry Cc1cc(C)c(/C=C2\C(=O)Nc3ccccc32)[nH]1 [Semaxanib (SU5416)] + Cc1nc(Nc2ncc(C(=O)Nc3c(C)cccc3Cl)s2)cc(N2CCN(CCO)CC2)n1 [dasatinib] has what AUC of dose-response viability curve?
A: 1.99

Q: Entry Cn1c(=O)n(-c2ccc(C(C)(C)C#N)cc2)c2c3cc(-c4cnc5ccccc5c4)ccc3ncc21 [BEZ235 (NVP-BEZ235)] + Cc1nc(Nc2ncc(C(=O)Nc3c(C)cccc3Cl)s2)cc(N2CCN(CCO)CC2)n1 [dasatinib] has what AUC of dose-response viability curve?
A: 1.23

Q: Entry Nc1nc(N)c2nc(-c3cccc(O)c3)c(-c3cccc(O)c3)nc2n1 [TG100-115] + Cc1nc(Nc2ncc(C(=O)Nc3c(C)cccc3Cl)s2)cc(N2CCN(CCO)CC2)n1 [dasatinib] has what AUC of dose-response viability curve?
A: 2.04

Q: Entry O=c1cc(N2CCOCC2)oc2c(-c3ccccc3)cccc12 + Cc1nc(Nc2ncc(C(=O)Nc3c(C)cccc3Cl)s2)cc(N2CCN(CCO)CC2)n1 [dasatinib] has what AUC of dose-response viability curve?
A: 1.77

---

Record form. Attribute: AUC of dose-response viability curve. Fill in for each entry.
test system: A498; assay: AUC of dose-response viability curve, drug alone (arbitrary (AUC of normalised viability)); higher = less growth inhibition; conditions: treatment: drug alone; 5 days
Give the figure by itself; no unit, no explanation.

Q: # returns recorded AUC of dose-response viability curve (system: A498) for CCc1cccc(CC)c1NC(=O)N1Cc2[nH]nc(NC(=O)c3ccc(N4CCN(C)CC4)cc3)c2C1
A: 3.29

Q: # returns recorded AUC of dose-response viability curve (system: A498) for CNC(=O)c1cc(COc2nnc(Nc3ccc(Cl)cc3)c3ccoc23)ccn1
A: 4.32

Q: # returns recorded AUC of dose-response viability curve (system: A498) for COc1cc(Nc2ncc(F)c(Nc3ccc4c(n3)NC(=O)C(C)(C)O4)n2)cc(OC)c1OC [R406(free base)]
A: 4.42

Q: # returns recorded AUC of dose-response viability curve (system: A498) for COc1ccc(-c2ccc3c(N4CCOCC4)nc(N4C[C@@H](C)O[C@@H](C)C4)nc3n2)cc1CO
A: 3.62

Q: # returns recorded AUC of dose-response viability curve (system: A498) for Cc1ccc(C(=O)Nc2cccc(C(F)(F)F)c2)cc1Nc1nc(-c2cccnc2)nc2c1cnn2C
A: 3.97

Q: # returns recorded AUC of dose-response viability curve (system: A498) for CCCNC(=O)Nc1ccc(Oc2ncnc3cc(OC)c(OC)cc23)cc1Cl
A: 4.07

Q: # returns recorded AUC of dose-response viability curve (system: A498) for Cc1cc2c(F)c(Oc3ncnn4cc(OC[C@@H](C)O)c(C)c34)ccc2[nH]1
A: 4.21

Q: # returns recorded AUC of dose-response viability curve (system: A498) for CC(C)(C)c1cnc(CSc2cnc(NC(=O)C3CCNCC3)s2)o1
A: 1.58

Q: # returns recorded AUC of dose-response viability curve (system: A498) for CC(O)C(=O)O.CC(O)C(=O)O.CN1CCN(c2ccc3nc(-c4c(N)c5c(F)cccc5[nH]c4=O)[nH]c3c2)CC1
A: 4.64

Q: # returns recorded AUC of dose-response viability curve (system: A498) for C[C@@H](Oc1cc(-c2cnn(C3CCNCC3)c2)cnc1N)c1c(Cl)ccc(F)c1Cl
A: 3.48

Q: # returns recorded AUC of dose-response viability curve (system: A498) for C[C@@H]1CN(CC(=O)Nc2ccc3c(c2)Cc2cccc(-c4cc(=O)cc(N5CCOCC5)o4)c2S3)C[C@H](C)O1
A: 4.69

Q: # returns recorded AUC of dose-response viability curve (system: A498) for COc1ccc(COc2cc3oc(=O)c4cc(C(C)O)ccc4c3cc2OC)cc1 (centres undefined)
A: 4.44

Q: # returns recorded AUC of dose-response viability curve (system: A498) for COCCOc1ccc2c(c1)ncn2-c1ccc2cccc(N3CCC(N)CC3)c2n1
A: 3.27

Q: # returns recorded AUC of dose-response viability curve (system: A498) for CC1(C)CCC(CN2CCN(c3ccc(C(=O)NS(=O)(=O)c4ccc(NCC5CCOCC5)c([N+](=O)[O-])c4)c(Oc4cnc5[nH]ccc5c4)c3)CC2)=C(c2ccc(Cl)cc2)C1
A: 3.73

---

system: UO-31; experiment: AUC of dose-response viability curve, drug alone (arbitrary (AUC of normalised viability)); higher = less growth inhibition; conditions: treatment: drug alone; 5 days
Readout Name: AUC of dose-response viability curve
Give the figure by itself; no unit, no explanation.

Q: Entry COc1ccc2c(c1OC)N=C(NC(=O)c1cccnc1)N1CCN=C21 has what AUC of dose-response viability curve?
A: 3.42

Q: Entry Oc1cc(O)cc(/C=C/c2ccc(O)c(O)c2)c1 has what AUC of dose-response viability curve?
A: 5.06

Q: Entry COCC(=O)NC/C=C/c1ccc2ncnc(Nc3ccc(Oc4ccc(C)nc4)c(C)c3)c2c1 has what AUC of dose-response viability curve?
A: 5.09

Q: Entry Cn1c(=O)n(-c2ccc(C(C)(C)C#N)cc2)c2c3cc(-c4cnc5ccccc5c4)ccc3ncc21 has what AUC of dose-response viability curve?
A: 1.69

Q: Entry Cc1ccc([N+](=O)[O-])cc1S(=O)(=O)N(C)/N=C/c1cnc2ccc(Br)cn12.Cl has what AUC of dose-response viability curve?
A: 1.71

Q: Entry C=CC(=O)Nc1ccc2ncnc(Nc3ccc(OCc4cccc(F)c4)c(Cl)c3)c2c1.Cc1ccc(S(=O)(=O)O)cc1 has what AUC of dose-response viability curve?
A: 4.13

Q: Entry Clc1ccc(C2(c3ccc(-c4cn[nH]c4)cc3)CCNCC2)cc1 has what AUC of dose-response viability curve?
A: 2.21
